Each recorded value in this set is attributed to PubChem BioAssay (NCI).

Test: NCI Yeast Anticancer Drug Screen. Data for the cln2 rad14 strain (AID 165);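 also: 0% = growth equal to vehicle treated cultures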
Settings: S. cerevisiae cln2 rad14 strain, at 50.0 µM (retest, dose inferred, filed as 5.0), active compounds read high
The panel holds about 79,000 compounds, 15% with a hit somewhere; the sample as a whole holds those more often.
QUANTITY: growth inhibition (%)
Quick note: give the figure in %, leave out the unit.

Ask: So what does the record say about growth inhibition for "c1ccc([P+](c2ccccc2)(c2ccccc2)C2CCCC2)cc1" ?
Result: -1

Ask: Which growth inhibition reading was recorded for the compound "CN(C)CCNC(=O)c1cccc2ccc(-c3ccc(-c4ccccc4)cc3)nc12" ?
Result: 99

Ask: I am curious: what growth inhibition value has been reported for "CCOC(=O)c1cc(Cc2ccccc2)c(=O)n(C)c1-c1ccccc1" ?
Result: 46

Ask: Need growth inhibition of "O=C(O)c1ccc(Br)cc1C(=O)c1ccccc1" , thanks.
Result: -38

Ask: Given "CCOc1ccc2nc3cc(Cl)ccc3[n+](C)c2c1" , state its recorded growth inhibition.
Result: 74

Ask: Which growth inhibition value is on record for "CCCCC#CCCOC(=O)C#CCCCC" ?
Result: 9

Ask: Would you mind telling me what growth inhibition value was observed for "O=C(CC(=O)c1ccccc1NC1=Cc2ccccc2C(=O)C1=O)C(=O)NC1=C(Cl)C(=O)c2ccccc2C1=O" ?
Result: 66

Ask: Quick check: growth inhibition of "Cc1ccc(C)c(C(=O)/C=C/C(=O)O)c1" ?
Result: 99

Ask: Form field: reported growth inhibition of "C=Cc1nc(N)nc(-c2ccc(C)cc2)n1"
Result: 74

Ask: Given the compound "CCOC(=O)c1cc2c(nc1NCc1ccc(OC)c(OC)c1)/C(=C/c1ccccc1)CCCC2" , what is its reported growth inhibition?
Result: 84

###

Experiment: NCI Yeast Anticancer Drug Screen. Data for the mlh1 rad18 strain (AID 175)
Settings: S. cerevisiae mlh1 rad18 strain growth inhibition; at 5.0 µM (retest, dose inferred, filed as 0.5); active compounds read high
This is part of a sample that, as a whole, favours compounds with a hit. Of some 79,000 tested, about 15% had one in any assay.
QUANTITY: growth inhibition (%)
Please give a number only; it is taken to be in %.

Ask: Would you mind telling me what growth inhibition value was observed for "NC(=O)c1cccn1Cc1ccccc1SSc1ccccc1Cn1cccc1C(N)=O" ?
Result: 21

Ask: What growth inhibition value was documented for this compound, "CCCCC/C(=C/C=C/c1ccc(Cl)cc1)CN(C)C" ?
Result: 7

Ask: Item "O=[n+]1c2c(n([O-])c3ccc4ccccc4c31)-c1cccc3cccc-2c13" has what recorded growth inhibition?
Result: -2

Ask: May I ask what growth inhibition has been recorded for "O=C1CCC/C1=C\c1ccccc1" ?
Result: 1

Ask: Fill in: growth inhibition of "CC(=O)OCc1cc2c(s1)C(=O)c1sccc1C2=O" is ___
Result: 24

Ask: I'd like to know its growth inhibition. The compound in question is "CS(=O)(=O)c1ccc(C[N+]23CN4CN(CN(C4)C2)C3)cc1"
Result: -9

Ask: Which growth inhibition is reported for this compound? Cc1ccc(/C=C2\CCCC(CN3CCCCC3)C2=O)cc1 (configuration not stated)
Result: 32

Ask: Any idea what growth inhibition was measured for "COC(=O)c1c[nH]c2ccc(Br)cc12" ?
Result: 23

Ask: Looking for the measured growth inhibition of "CCCCCCCCCCCC(=O)N(CC)CC" , can you help?
Result: 14

Ask: Give the measured growth inhibition of "COc1ccc(C(=O)Nc2ccc(Cl)cc2)cc1" .
Result: -8

Ask: What does the data say about its growth inhibition? Entry: C=C(C)C1CC2=C(O1)C(=O)c1ccccc1C2=O (configuration not stated)
Result: 11

Ask: Please give the measured growth inhibition for this compound: "[N-]=[N+]=NC1=CC(=O)c2cccc3cccc1c23"
Result: 72

Ask: Query: growth inhibition; subject: "COC(=O)c1ccccc1NC(=O)C(=O)Cc1nc2c3c(ccc2[nH]c1=O)C(=O)c1ccccc1C3=O"
Result: 16

Ask: Which measured growth inhibition value corresponds to "Oc1cc(C(c2ccccc2)c2ccccc2)c2ccccc2c1O" ?
Result: 34

Ask: Please look up its growth inhibition: "C=Cc1nc(N)nc(-c2ccc(C)cc2)n1"
Result: 7

Ask: I'd like to know its growth inhibition. The compound in question is "CCC(C(=O)CCN(C)C)(c1ccccc1)c1ccccc1"
Result: 80

Ask: // growth inhibition lookup, key: "C=CCSc1nc2ccccc2c(=O)n1Cc1ccco1"
Result: 43

Ask: What value of measured growth inhibition is listed for "O=C1C(C=NC(=S)c2ccccc2)=C(O)c2ccccc21" ?
Result: 32

Ask: May I ask what growth inhibition has been recorded for CC(NC(=O)OCc1ccccc1)C(=O)NNc1ccccc1Cl (configuration not stated) ?
Result: 96

Ask: Look up growth inhibition: CC(C)C1=C(O)C2=C(C(=O)C1=O)C1(C)CCCC(C)(C)C1C(O)C2OC=O (configuration not stated)
Result: 98

Ask: Sample "CCOC(=O)C(/C=N\C(=S)Nc1ccc(Cl)c(Cl)c1)=C(/O)c1ccccc1" — what was its growth inhibition?
Result: -9

Ask: What value of measured growth inhibition is listed for "O=c1oc2c(-c3ccccc3)cccc2c(O)c1-c1ccccc1" ?
Result: 0

Ask: Fill in the blank: the reported growth inhibition of "CCc1cccc(C)c1NC(=O)/C(Cl)=C(\Cl)C(=O)O" is ____.
Result: 53

Ask: Can you share its growth inhibition? I mean this compound: "CC/C(=N\NC(=S)SC)c1ccccn1"
Result: 25

Ask: Given the compound "O/N=C1\c2ccccc2-c2ccc(Cl)cc21" , what is its reported growth inhibition?
Result: 8

Ask: Requested read-out: growth inhibition. Entry: "CCC(CC)(c1ccc(C)cc1)c1ccc(C)cc1"
Result: 7

Ask: Item CC(Cc1ccccc1)NNC(C)Cc1ccccc1 (configuration not stated) has what recorded growth inhibition?
Result: 7
